Kindly state IC50 for each of the entries shown.
TGT: Cholinesterase (Homo sapiens)
ASSAY SUMMARY: Inhibition of BuChE in human plasma using butyrylthiocholine iodide as substrate by Ellman's colorimetric method
SETTINGS: read-out: IC50
Numbers only; they are read as nM.

Value (IC50, Cholinesterase (Homo sapiens)) for record Fc1ccc(-c2nc(-c3ccccc3)c(-c3ccccc3)n2CCCCCCCCNc2c3c(nc4ccccc24)CCCC3)cc1 = 57.3

Value (IC50, Cholinesterase (Homo sapiens)) for record N#Cc1ccc(-c2nc(-c3ccccc3)c(-c3ccccc3)n2CCCCCCNc2c3c(nc4ccccc24)CCCC3)cc1 = 29.6

Value (IC50, Cholinesterase (Homo sapiens)) for record c1ccc2c(NCCCCCCCNc3c4c(nc5ccccc35)CCCC4)c3c(nc2c1)CCCC3 = 9.03

Value (IC50, Cholinesterase (Homo sapiens)) for record c1ccc(-c2nc(-c3ccccc3)n(CCCCCCCNc3c4c(nc5ccccc35)CCCC4)c2-c2ccccc2)cc1 = 92.4

----------
Kindly state IC50 for each of the entries shown.
TGT: Cholinesterase (Homo sapiens)
ASSAY SUMMARY: Inhibition of BuChE in human plasma using butyrylthiocholine iodide as substrate by Ellman's colorimetric method
SETTINGS: read-out: IC50
Record the result as number plus unit.

# compound N#Cc1ccc(-c2nc(-c3ccccc3)c(-c3ccccc3)n2CCCCCCCNc2c3c(nc4ccccc24)CCCC3)cc1 ; its IC50 = 7.1 nM

# compound c1ccc(-c2nc(-c3ccccc3)n(CCCCCCNc3c4c(nc5ccccc35)CCCC4)c2-c2ccccc2)cc1 ; its IC50 = 58 nM

# compound Clc1ccc(-c2nc(-c3ccccc3)c(-c3ccccc3)n2CCCCCCCCNc2c3c(nc4ccccc24)CCCC3)cc1 ; its IC50 = 109 nM

----------
Kindly state IC50 for each of the entries shown.
TGT: UniProt P06276
ASSAY SUMMARY: Inhibition of BuChE in human plasma using butyrylthiocholine iodide as substrate by Ellman's colorimetric method
SETTINGS: read-out: IC50
Record the result as number plus unit.

# compound Clc1ccc(-c2nc(-c3ccccc3)c(-c3ccccc3)n2CCCCCCCNc2c3c(nc4ccccc24)CCCC3)cc1 ; its IC50 = 37.6 nM

# compound O=[N+]([O-])c1ccc(-c2nc(-c3ccccc3)c(-c3ccccc3)n2CCCCCCCCNc2c3c(nc4ccccc24)CCCC3)cc1 ; its IC50 = 120 nM

# compound COc1ccc(-c2nc(-c3ccccc3)c(-c3ccccc3)n2CCCCCCNc2c3c(nc4ccccc24)CCCC3)cc1 ; its IC50 = 36 nM

# compound N#Cc1ccc(-c2nc(-c3ccccc3)c(-c3ccccc3)n2CCCCCCCCNc2c3c(nc4ccccc24)CCCC3)cc1 ; its IC50 = 30.5 nM

----------
TGT: Cholinesterase (Homo sapiens, UniProt P06276)
Sequence (P06276 whole entry): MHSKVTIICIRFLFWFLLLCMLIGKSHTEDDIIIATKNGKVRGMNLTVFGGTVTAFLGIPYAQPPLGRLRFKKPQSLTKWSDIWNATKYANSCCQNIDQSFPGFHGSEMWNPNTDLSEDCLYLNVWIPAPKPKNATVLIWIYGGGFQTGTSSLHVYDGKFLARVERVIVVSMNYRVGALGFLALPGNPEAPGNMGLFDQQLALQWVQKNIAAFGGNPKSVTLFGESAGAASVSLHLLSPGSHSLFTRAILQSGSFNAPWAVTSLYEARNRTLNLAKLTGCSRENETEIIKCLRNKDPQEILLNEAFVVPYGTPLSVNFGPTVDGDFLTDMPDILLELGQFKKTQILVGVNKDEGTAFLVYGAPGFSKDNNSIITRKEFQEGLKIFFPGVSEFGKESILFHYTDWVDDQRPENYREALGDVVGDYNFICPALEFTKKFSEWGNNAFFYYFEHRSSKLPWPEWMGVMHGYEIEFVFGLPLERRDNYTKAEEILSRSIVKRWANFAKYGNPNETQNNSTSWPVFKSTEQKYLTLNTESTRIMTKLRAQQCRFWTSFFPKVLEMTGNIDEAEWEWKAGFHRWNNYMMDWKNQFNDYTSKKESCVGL
ASSAY SUMMARY: Inhibition of BuChE in human plasma using butyrylthiocholine iodide as substrate by Ellman's colorimetric method
SETTINGS: read-out: IC50
Strictly below 70 nM in IC50: yes (1). Otherwise: no (0).

Quick check: IC50 of Clc1cccc(-c2nc(-c3ccccc3)c(-c3ccccc3)n2CCCCCCNc2c3c(nc4ccccc24)CCCC3)c1 under 70 nM?
yes (1)

Quick check: IC50 of O=[N+]([O-])c1ccc(-c2nc(-c3ccccc3)c(-c3ccccc3)n2CCCCCCCNc2c3c(nc4ccccc24)CCCC3)cc1 under 70 nM?
no (0)

Quick check: IC50 of COc1ccc(-c2nc(-c3ccccc3)c(-c3ccccc3)n2CCCCCCCNc2c3c(nc4ccccc24)CCCC3)cc1 under 70 nM?
yes (1)

Quick check: IC50 of O=[N+]([O-])c1ccc(-c2nc(-c3ccccc3)c(-c3ccccc3)n2CCCCCCNc2c3c(nc4ccccc24)CCCC3)cc1 under 70 nM?
yes (1)

Quick check: IC50 of Clc1ccc(-c2nc(-c3ccccc3)c(-c3ccccc3)n2CCCCCCNc2c3c(nc4ccccc24)CCCC3)cc1 under 70 nM?
yes (1)

Quick check: IC50 of Fc1ccc(-c2nc(-c3ccccc3)c(-c3ccccc3)n2CCCCCCNc2c3c(nc4ccccc24)CCCC3)cc1 under 70 nM?
yes (1)

Quick check: IC50 of Fc1ccc(-c2nc(-c3ccccc3)c(-c3ccccc3)n2CCCCCCCNc2c3c(nc4ccccc24)CCCC3)cc1 under 70 nM?
yes (1)

Quick check: IC50 of COc1ccc(-c2nc(-c3ccccc3)c(-c3ccccc3)n2CCCCCCCCNc2c3c(nc4ccccc24)CCCC3)cc1 under 70 nM?
no (0)

Numbers sourced from ChEMBL document CHEMBL2331189.
